# System: FLT3(ITD)
# TEST_PARAMETERS: Compound Concentration (nM):1000;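 further: KINOMEscan scanMAX binding as percent activity remaining versus control; lower means stronger binding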
Below is a list of entries, each paired with its recorded Percent Control value.
Your answer is read as %, so omit the unit and give the number.

Example entries and their recorded answers appear below.
CC(C)COC(=O)c1ccc2c(c1)/C(=C/Nc1ccc(S(N)(=O)=O)cc1)C(=O)N2 [GW416981X]	3
COc1ccc2c(-c3ccnc(Nc4cccc(OC(F)(F)F)c4)n3)cnn2n1 [GW810372X]	49
COC(=O)Nc1nc2ccc(Oc3ccc(NC(=O)Nc4cc(C(F)(F)F)ccc4F)cc3)cc2s1.Cl [GW693917A]	4.3

Query: Record request: Percent Control value, item NS(=O)(=O)c1ccc(N/N=C2\C(=O)Nc3ccc(Cl)cc32)cc1 [GW280670X]
Result: 59

Query: What would you report for COc1ccc(COc2ccc(Cc3cnc(N)nc3N)cc2OC)cc1 [GW632580X] ?
Result: 87

Query: What would you report for O=C(Nc1n[nH]c2nc(-c3ccc(O)cc3)c(Br)cc12)C1CC1 ?
Result: 68

Query: What would you report for Cl.O=C(Nc1ccc(Oc2ccc3[nH]c(NC(=O)c4ccco4)nc3c2)cc1)Nc1cc(C(F)(F)F)ccc1F [GW683134A] ?
Result: 3.7

Query: What would you report for COc1ccc2[nH]c3c4[nH]c5ccc(OC)cc5c4c4c(c3c2c1)C(=O)NC4=O [GW296115X] ?
Result: 2.1

Query: What would you report for CCc1ccc(Oc2nccc(-c3c(-c4ccc(F)cc4)ncn3C3CCNCC3)n2)cc1 ?
Result: 99

Query: What would you report for Nc1ncnc2occ(-c3ccc(NC(=O)Nc4cc(C(F)(F)F)ccc4F)cc3)c12 [GW770249X] ?
Result: 2.9

---

# Test system: PRKX
# TEST_PARAMETERS: Compound Concentration (nM):1000
Below is a list of entries, each paired with its recorded Percent Control value.
Your answer is read as %, so omit the unit and give the number.

CCS(=O)(=O)c1ccc(OC)c(Nc2ncc(-c3cccc(F)c3)o2)c1 [GW621970X]	100
NS(=O)(=O)c1ccc(Nc2ncc(-c3ccccc3)o2)cc1 [GW572399X]	100

Query: Notebook: pull reported Percent Control for PRKX, entry C/C(Nc1ccc(S(N)(=O)=O)cc1)=C1/C(=O)Nc2ccccc21 [GW335962X]
Result: 87

Query: What would you report for CCc1ccc(Oc2nccc(-c3c(-c4ccc(F)cc4)ncn3C3CCNCC3)n2)cc1 ?
Result: 86

Query: What would you report for COc1ccc2cc(-c3c(-c4ccncc4)nc(-c4ccc(S(C)(=O)=O)cc4C)n3C)ccc2c1 ?
Result: 95

Query: What would you report for COc1cccc(-c2c[nH]c3c(N/N=C/c4ccncc4)ncnc23)c1 [GW814408X] ?
Result: 100

Query: What would you report for COc1cc(N2CCN(C(C)C)CC2)ccc1Nc1nc(Nc2ccc(F)cc2C(=O)NC[C@@H](O)CO)c2cc[nH]c2n1 [GSK1392956A] ?
Result: 80

Query: What would you report for COc1cc2ncn(-c3cc(O[C@H](C)c4ccccc4Cl)c(C(N)=O)s3)c2cc1OC [GSK237701A] ?
Result: 97

---

Below is a list of entries, each paired with its recorded Percent Control value.
# Tested on: ABL1(F317I)-nonphosphorylated
# TEST_PARAMETERS: Compound Concentration (nM):1000
Your answer is read as %, so omit the unit and give the number.

Query: Notebook: pull reported Percent Control for ABL1(F317I)-nonphosphorylated, entry Cl.O=S1CCN(Cc2ccc(-c3ccc4ncnc(Nc5ccc(OCc6ccccc6)c(F)c5)c4c3)o2)CC1 [GW576924A]
Result: 100

Query: What would you report for COc1cc(N2CCN(C(C)C)CC2)ccc1Nc1nc(Nc2ccc(F)cc2C(=O)NC[C@@H](O)CO)c2cc[nH]c2n1 [GSK1392956A] ?
Result: 100

Query: What would you report for O=C(Nc1n[nH]c2nc(-c3ccc(O)cc3)c(Br)cc12)C1CC1 ?
Result: 100

Query: What would you report for CN(C)CCNC(=O)Nc1ccc(N(C)c2ccnc(Nc3ccc(CS(C)(=O)=O)cc3)n2)cc1.Cl [GW830900A] ?
Result: 93

Query: What would you report for COc1cc2ncn(-c3cc(O[C@H](C)c4ccccc4Cl)c(C(N)=O)s3)c2cc1OC [GSK237701A] ?
Result: 100

Query: What would you report for COc1cc(/C=N/Nc2ncnc3[nH]ncc23)ccc1O [GW578748X] ?
Result: 100

Query: What would you report for NS(=O)(=O)c1ccc(N/N=C2\C(=O)Nc3ccc(C(=O)NCCc4c[nH]cn4)cc32)cc1 [GW300660X] ?
Result: 100

Query: What would you report for Cl.O=C(Nc1ccc(Oc2ccc3[nH]c(NC(=O)c4ccco4)nc3c2)cc1)Nc1cc(C(F)(F)F)ccc1F [GW683134A] ?
Result: 20

---

Below is a list of entries, each paired with its recorded Percent Control value.
# System: ERK2
# Construct: gene MAPK1
# TEST_PARAMETERS: Compound Concentration (nM):1000

Example entries and their recorded answers appear below.
CCc1ccc(Oc2nccc(-c3c(-c4ccc(F)cc4)ncn3C3CCNCC3)n2)cc1	100%
COc1cc(C)c(N(C)C(=O)CN(C)C)cc1Nc1nc(Nc2cccc(F)c2C(N)=O)c2cc[nH]c2n1	100%
COc1cc2ncn(-c3cc(O[C@H](C)c4ccccc4Cl)c(C(N)=O)s3)c2cc1OC [GSK237701A]	100%

Query: Record request: Percent Control value, item NS(=O)(=O)c1ccc(N/N=C2\C(=O)Nc3ccc(C(=O)NCc4ccncc4)cc32)cc1 [GW300657X]
Result: 88%

Query: What would you report for COC(=O)Nc1nc2ccc(Oc3ccc(NC(=O)Nc4cc(C(F)(F)F)ccc4F)cc3)cc2s1.Cl [GW693917A] ?
Result: 100%

---

# Tested on: LYN
# TEST_PARAMETERS: Compound Concentration (nM):1000
OBSERVATION_TYPE: Percent Control (%)
Your answer is read as %, so omit the unit and give the number.

Example entries and their recorded answers appear below.
CC(C)COC(=O)c1ccc2c(c1)/C(=C/Nc1ccc(S(N)(=O)=O)cc1)C(=O)N2 [GW416981X]	100
CN(C)c1cc2c(Nc3ccc4c(cnn4Cc4ccccc4)c3)ncnc2cn1 [GW282974X]	89
COc1ccc2cc(-c3c(-c4ccncc4)nc(-c4ccc(S(C)(=O)=O)cc4C)n3C)ccc2c1	66

Please find the next compound below.
Query: Record request: Percent Control value, item NS(=O)(=O)c1ccc(N/N=C2\C(=O)Nc3ccc(Cl)cc32)cc1 [GW280670X]
Result: 90

---

# System: YSK1
# Construct: gene STK25
# TEST_PARAMETERS: Compound Concentration (nM):1000
Below is a list of entries, each paired with its recorded Percent Control value.

Query: Record request: Percent Control value, item C/C(Nc1ccc(S(N)(=O)=O)cc1)=C1/C(=O)Nc2ccccc21 [GW335962X]
Result: 55%

Query: What would you report for COc1cc(N2CCN(C(C)C)CC2)ccc1Nc1nc(Nc2ccc(F)cc2C(=O)NC[C@@H](O)CO)c2cc[nH]c2n1 [GSK1392956A] ?
Result: 89%

---

Below is a list of entries, each paired with its recorded Percent Control value.
# System: ERBB4
# TEST_PARAMETERS: Compound Concentration (nM):1000
Your answer is read as %, so omit the unit and give the number.

Example entries and their recorded answers appear below.
O=C(Nc1n[nH]c2nc(-c3ccc(O)cc3)c(Br)cc12)C1CC1	100
NS(=O)(=O)c1ccc(Nc2ncc(-c3ccccc3)o2)cc1 [GW572399X]	100

Query: Record request: Percent Control value, item COc1ccc2c(-c3ccnc(Nc4cccc(OC(F)(F)F)c4)n3)cnn2n1 [GW810372X]
Result: 100

Query: What would you report for NS(=O)(=O)c1ccc(N/N=C2\C(=O)Nc3ccc(Cl)cc32)cc1 [GW280670X] ?
Result: 100

---

# Test system: PRKCI
# TEST_PARAMETERS: Compound Concentration (nM):1000
Below is a list of entries, each paired with its recorded Percent Control value.
Your answer is read as %, so omit the unit and give the number.

Cl.O=C(Nc1ccc(Oc2ccc3[nH]c(NC(=O)c4ccco4)nc3c2)cc1)Nc1cc(C(F)(F)F)ccc1F [GW683134A]	100

Please find the next compound below.
Query: Notebook: pull reported Percent Control for PRKCI, entry COc1cc(/C=N/Nc2ncnc3[nH]ncc23)ccc1O [GW578748X]
Result: 63

---

# System: TAOK3
# TEST_PARAMETERS: Compound Concentration (nM):1000
OBSERVATION_TYPE: Percent Control (%)
Your answer is read as %, so omit the unit and give the number.

Example entries and their recorded answers appear below.
CN1CCN(C(=O)c2ccc(NC(=O)Nc3ccc(N(C)c4ccnc(Nc5ccc(CS(C)(=O)=O)cc5)n4)cc3)cc2)CC1.Cl [GW830263A]	83
COc1cc(C)c(N(C)C(=O)CN(C)C)cc1Nc1nc(Nc2cccc(F)c2C(N)=O)c2cc[nH]c2n1	100
Cl.O=C(Nc1ccc(Oc2ccc3[nH]c(NC(=O)c4ccccc4)nc3c2)cc1)Nc1cc(C(F)(F)F)ccc1F [GW709042A]	98
COc1cccc(-c2c[nH]c3c(N/N=C/c4ccncc4)ncnc23)c1 [GW814408X]	32
CN(C)c1cc2c(Nc3ccc4c(cnn4Cc4ccccc4)c3)ncnc2cn1 [GW282974X]	100
COc1cc(/C=N/Nc2ncnc3[nH]ncc23)ccc1O [GW578748X]	77
NS(=O)(=O)c1ccc(N/N=C2\C(=O)Nc3ccc(-c4cnco4)cc32)cc1	98

Query: Record request: Percent Control value, item NS(=O)(=O)c1ccc(N/N=C2\C(=O)Nc3ccc(C(=O)NCc4ccncc4)cc32)cc1 [GW300657X]
Result: 100
